The measured values listed here are drawn from ChEMBL document CHEMBL4321865.

Experiment: physchem
Details: DMSO, pH 9
Description: Solubility of the compound in DMSO at pH 9 incubated for 24 hrs by LC-UV method
recorded_endpoint: solubility at 24 h

// solved cases for solubility at 24 h follow
>  <compound_structure>
C[C@@](CCN1Cc2cc(C#Cc3ccc(C4(O)COC4)cc3)cn2C1=O)(C(=O)NO)S(C)(=O)=O

>  <experimental_value>
> 820 µg/mL

$$$$
>  <compound_structure>
COc1ccc(-c2cc3n(c2)C(=O)N(CC[C@](C)(C(=O)NO)S(C)(=O)=O)C3)c(F)c1

>  <experimental_value>
302 µg/mL

$$$$
>  <compound_structure>
C[C@@](CCN1Cc2cc(C#Cc3ccc(CN4CCOCC4)cc3)cn2C1=O)(C(=O)NO)S(C)(=O)=O

>  <experimental_value>
621 µg/mL

$$$$
>  <compound_structure>
C[C@@](CCN1Cc2cc(C#CC#CC3(N)CC3)cn2C1=O)(C(=O)NO)S(C)(=O)=O.Cl

>  <experimental_value>
536 µg/mL

$$$$
>  <compound_structure>
COc1ccc(-c2ccc3c(c2)oc(=O)n3CC[C@](C)(C(=O)NO)S(C)(=O)=O)c(F)c1

>  <experimental_value>
66 µg/mL

$$$$

The compound listed as `COc1ccc(-c2ccn(CC[C@](C)(C(=O)NO)S(C)(=O)=O)c(=O)c2)c(F)c1` has a reported solubility at 24 h of 692 µg/mL

// solubility at 24 h lookup, compound = `CC(C)(O)C#CC#Cc1cc2c(s1)C(=O)N(CC[C@](C)(C(=O)NO)S(C)(=O)=O)C2` , result: > 740 µg/mL

The compound `CC(C)(O)c1ccc(C#Cc2cc3c(s2)C(=O)N(CC[C@](C)(C(=O)NO)S(C)(=O)=O)C3)cc1` showed solubility at 24 h equal to 613 µg/mL

The value of solubility at 24 h measured for the compound `CC(C)(O)c1ccc(C#Cc2cc3n(c2)C(=O)N(CC[C@](C)(C(=O)NO)S(C)(=O)=O)C3)cc1` turned out to be 556 µg/mL

The reported value for `CC(C)(O)c1ccc(C#Cc2ccc3c(c2)CN(CC[C@](C)(C(=O)NO)S(C)(=O)=O)C3=O)cc1` in terms of solubility at 24 h is 136 µg/mL

Notebook: `C[C@@](CCN1Cc2cc(C#CC#CCOC(=O)N3CCC(O)CC3)cn2C1=O)(C(=O)NO)S(C)(=O)=O` , solubility at 24 h read as > 880 µg/mL

----------
Tested on: Escherichia coli
Assay: Antibacterial activity against Escherichia coli infected in cyclophosphamide-induced NMRI/ICR CD-1 mouse model of neutropenic thigh infection assessed as reduction in thigh bacterial load at 50 mg/kg, sc measured after 22 hrs relative to control
Type: functional
recorded_endpoint: fold change (FC)
Reply briefly: the number, and no unit.

These solved cases illustrate the format of a correct answer.
>  <compound_structure>
C[C@@](CCN1Cc2cc(C#CC#C[C@H]3C[C@@H]3CO)cn2C1=O)(C(=O)NO)S(C)(=O)=O

>  <target_desc>
Escherichia coli

>  <fold change (FC)>
1.8

$$$$
>  <compound_structure>
C[C@@](CCN1Cc2cc(C#Cc3ccc([C@H](O)CO)cc3)cn2C1=O)(C(=O)NO)S(C)(=O)=O

>  <target_desc>
Escherichia coli

>  <fold change (FC)>
2.4

$$$$
>  <compound_structure>
C[C@@](CCN1Cc2cc(C#CC#CC3(N)CC3)cn2C1=O)(C(=O)NO)S(C)(=O)=O.Cl

>  <target_desc>
Escherichia coli

>  <fold change (FC)>
2.8

$$$$

From here, focus on the item given below.
Entry `C[C@@](CCN1Cc2cc(C#CC#CC3(CO)CC3)cn2C1=O)(C(=O)NO)S(C)(=O)=O` — recorded fold change (FC) = 2.1

----------
Test: Apparent clearance in NMRI/ICR CD-1 mouse at 50 mg/kg, sc by LC-MS/MS analysis
Type: ADME, organism-based
Details: in vivo
# CL/F values compiled below
Give the value, in units of mL/min/kg, as a plain number.

Solved entries (count: 2):
>  <compound_structure>
C[C@@](CCN1Cc2cc(C#CC#C[C@H]3C[C@@H]3CO)cn2C1=O)(C(=O)NO)S(C)(=O)=O

>  <measurement_unit>
mL/min/kg

>  <CL/F>
20.2

$$$$
>  <compound_structure>
C[C@@](CCN1Cc2cc(C#CC#CC3(CO)CC3)cn2C1=O)(C(=O)NO)S(C)(=O)=O

>  <measurement_unit>
mL/min/kg

>  <CL/F>
25.1

$$$$

Looking up `C[C@@](CCN1Cc2cc(C#Cc3ccc([C@H](O)CO)cc3)cn2C1=O)(C(=O)NO)S(C)(=O)=O` , I found its CL/F recorded as 10.8

----------
Experiment: physchem
Conditions: DMSO, pH 7
Description: Solubility of the compound in DMSO at pH 7 incubated for 24 hrs by LC-UV method
recorded_endpoint: solubility at 24 h

Completed entries (count: 10):
>  <compound_structure>
C[C@@](CCN1Cc2cc(C#CC#CCOC(=O)N3CCC(O)CC3)cn2C1=O)(C(=O)NO)S(C)(=O)=O

>  <solubility at 24 h>
785 µg/mL

$$$$
>  <compound_structure>
C[C@@](CCN1Cc2cc(C#Cc3ccc([C@H](O)CO)cc3)cn2C1=O)(C(=O)NO)S(C)(=O)=O

>  <solubility at 24 h>
605 µg/mL

$$$$
>  <compound_structure>
C[C@@](CCN1Cc2cc(C#CC#CC3(O)COC3)sc2C1=O)(C(=O)NO)S(C)(=O)=O

>  <solubility at 24 h>
> 760 µg/mL

$$$$
>  <compound_structure>
C[C@@](CCN1Cc2cc(C#Cc3ccc(COC(=O)N4CCC(O)CC4)cc3)cn2C1=O)(C(=O)NO)S(C)(=O)=O

>  <solubility at 24 h>
15 µg/mL

$$$$
>  <compound_structure>
CC(C)(O)c1ccc(C#Cc2ccc3c(c2)CN(CC[C@](C)(C(=O)NO)S(C)(=O)=O)C3=O)cc1

>  <solubility at 24 h>
7 µg/mL

$$$$
>  <compound_structure>
C[C@@](CCN1Cc2cc(C#CC#C[C@H]3C[C@@H]3CO)sc2C1=O)(C(=O)NO)S(C)(=O)=O

>  <solubility at 24 h>
603 µg/mL

$$$$
>  <compound_structure>
C[C@@](CCN1Cc2cc(C#Cc3ccc(CN4CCOCC4)cc3)ccc2C1=O)(C(=O)NO)S(C)(=O)=O

>  <solubility at 24 h>
148 µg/mL

$$$$
>  <compound_structure>
CC(C)(O)c1ccc(C#Cc2cc3c(s2)C(=O)N(CC[C@](C)(C(=O)NO)S(C)(=O)=O)C3)cc1

>  <solubility at 24 h>
83 µg/mL

$$$$
>  <compound_structure>
C[C@@](CCN1Cc2cc(C#Cc3ccc([C@H](O)CO)cc3)sc2C1=O)(C(=O)NO)S(C)(=O)=O

>  <solubility at 24 h>
300 µg/mL

$$$$
>  <compound_structure>
C[C@@](CCN1Cc2cc(C#Cc3ccc(CNS(C)(=O)=O)cc3)cn2C1=O)(C(=O)NO)S(C)(=O)=O

>  <solubility at 24 h>
3 µg/mL

$$$$

Notebook: `C[C@@](CCN1Cc2cc(C#Cc3ccc(CN4CCOCC4)cc3)cn2C1=O)(C(=O)NO)S(C)(=O)=O` , solubility at 24 h read as 68 µg/mL

Given item `C[C@@](CCN1Cc2cc(C#Cc3ccc(CN4CCOCC4)cc3)sc2C1=O)(C(=O)NO)S(C)(=O)=O` , the value recorded as its solubility at 24 h is 155 µg/mL

Just so you know, measured solubility at 24 h for `C[C@@](CCN1Cc2cc(C#Cc3ccc(C4(O)COC4)cc3)cn2C1=O)(C(=O)NO)S(C)(=O)=O` came out at > 820 µg/mL

The compound listed as `C[C@@](CCN1Cc2cc(C#Cc3ccc([C@@H]4C[C@H]4CO)cc3)cn2C1=O)(C(=O)NO)S(C)(=O)=O` has a reported solubility at 24 h of 112 µg/mL

Value of solubility at 24 h reported for the compound `C[C@@](CCN1Cc2cc(C#CC#CC3(N)CC3)cn2C1=O)(C(=O)NO)S(C)(=O)=O.Cl` is 418 µg/mL

----------
Assay: Tmax in NMRI/ICR CD-1 mouse at 150 mg/kg, sc by LC-MS/MS analysis
Format: ADME, organism-based
Conditions: in vivo
recorded_endpoint: Tmax (min)
Value expressed in min; do not type the unit.

Reported Tmax of `C[C@@](CCN1Cc2cc(C#CC#CC3(N)CC3)cn2C1=O)(C(=O)NO)S(C)(=O)=O.Cl` : 30

----------
Details: mouse, plasma, 1 µM
Description: Protein binding in mouse plasma assessed as fraction unbound at 1 uM by equilibrium dialysis method
Binary call on Fu with cut-off 0.02%: strictly below means 1 (yes), and equality or higher means 0 (no).

>  <compound_structure>
C[C@@](CCN1Cc2cc(C#CC#CC3(CO)CC3)cn2C1=O)(C(=O)NO)S(C)(=O)=O

>  <group>
0 (no)

$$$$
>  <compound_structure>
COc1ccc(-c2ccn(CC[C@](C)(C(=O)NO)S(C)(=O)=O)c(=O)c2)c(F)c1

>  <group>
0 (no)

$$$$
>  <compound_structure>
C[C@@](CCN1Cc2cc(C#CC#CC3(N)CC3)cn2C1=O)(C(=O)NO)S(C)(=O)=O.Cl

>  <group>
0 (no)

$$$$

Prompt line: Decide: Fu of `C[C@@](CCN1Cc2cc(C#CC#C[C@H]3C[C@@H]3CO)cn2C1=O)(C(=O)NO)S(C)(=O)=O` strictly below 0.02%?
Response line: 1 (yes)

Prompt line: Does `C[C@@](CCN1Cc2cc(C#Cc3ccc([C@H](O)CO)cc3)cn2C1=O)(C(=O)NO)S(C)(=O)=O` have Fu strictly under 0.02%?
Response line: 1 (yes)
